Measured values drawn from paper PMC11203799 for this set.

# Tgt: mouse galectin-1 (Mus musculus)
# Sequence (P16045 whole entry): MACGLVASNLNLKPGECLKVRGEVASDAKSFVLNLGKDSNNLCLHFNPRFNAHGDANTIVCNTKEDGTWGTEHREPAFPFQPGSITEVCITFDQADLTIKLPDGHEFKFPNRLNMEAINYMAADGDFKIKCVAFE
pKd: −log10 of the molar value.
Property label: pKd

INSERT INTO assay_data (smiles_code, data_value) VALUES
  ('OC[C@H]1O[C@@H](S[C@@H]2O[C@H](CO)[C@H](O)[C@H](n3cc(-c4cccc(F)c4)nn3)[C@H]2O)[C@H](O)[C@@H](n2cc(-c3cccc(F)c3)nn2)[C@H]1O', 6.88);
